- assay system: T1, CD81 (UniProt P60033 1-236, limits assumed)
- T1 construct: whole, on cells; also called CD81 receptor
- T1 sequence (looked up): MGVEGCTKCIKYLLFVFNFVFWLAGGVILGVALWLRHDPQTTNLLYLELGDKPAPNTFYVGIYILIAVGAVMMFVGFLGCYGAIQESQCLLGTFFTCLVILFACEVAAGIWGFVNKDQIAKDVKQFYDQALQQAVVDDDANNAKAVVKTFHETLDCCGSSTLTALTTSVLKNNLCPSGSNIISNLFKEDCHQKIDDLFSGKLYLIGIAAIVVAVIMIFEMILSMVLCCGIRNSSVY
- protocol details: cell ELISA;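 note: antibody binding to HuH7 cells expressing CD81 versus a CD81-negative HuH7 control line, bound antibody detected by secondary reagent, absorbance at 450 nm with 620 nm reference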
property: ELISA data
A bare number is all that is needed in reply.

Name the reported ELISA data value associated with the binder CD81K04 HC JA_GG-14-hVH_1_69-GA / LC JA_GG-10-hVK_4_1 (antibody, V domains shown, human constant region) VH: QVQLVQSGAEVKKPGSSVKVSCKASGYTFSSSWMNWVRQAPGQGLEWMGRIYSGDGDAIYNGKFKGKATITADESTSTAYMELSSLRSEDTAVYYCAREGKTGDLLLRSWGQGTLVTVSS VL: DIVMTQSPDSLAVSLGERATINCRASKSVSTSIYSYMHWYQQKPGQPPKLLIKYASYLESGVPDRFSGSGSGTDFTLTISSLQAEDVAVYYCEHSREFPFTFGQGTKLEIK 0.733

Name the reported ELISA data value associated with the binder CD81K04 HC GG-04-hVH_1_69 / LC CD81K04 (antibody, V domains shown, human constant region) VH: QVQLVQSGAEVKKPGSSVKVSCKASGYTFSSSWMNWVRQAPGQGLEWMGRIYSGDGDAIYNQKFQGRATITADESTSTAYMELSSLRSEDTAVYYCAREGKTGDLLLRSWGQGTLVTVSS VL: DIVLTQSPASLSVSLGQRATISCRASKSVSTSIYSYMHWYQQKPGQPPKLLIKYASYLESGVPARFSGSGSGTDFTLNIHPVEEEDAATYYCEHSREFPFTFGTGTKLEIK 0.859
